Data origin, for the record: ChEMBL document CHEMBL4673317

- Tested on: CHO-K1
- Experiment Notes: Cytotoxicity against CHO-K1 cells assessed as reduction in cell viability after 24 hrs by MTT assay
- Format: cell-based
- Study Conditions: Cricetulus griseus, CHO-K1, 24 h
Could you please report measured pIC50 for the items listed next?
Give bare numbers, as −log10 of the molar value.

Quick request: pIC50 for each listed item, please.
1. Cc1ncc([N+](=O)[O-])n1CCO
2. O=c1c(O)c(-c2ccc(O)cc2)oc2cc(O)cc(O)c12
3. C[C@]12C[C@H](c3ccoc3)OC(=O)[C@H]1CC[C@@]13COC(=O)C1=CC=C[C@H]32

1. 2.53
2. 3.62
3. 3.06
